# Test system: OVCAR-3 ovarian
# Assay: NCI-60 one-dose screen, 48 h
# Settings: 10 µM unless noted
This is part of a sample that, as a whole, favours compounds with a hit. Of some 83,000 tested, about 20% had one in any assay. Active and inactive are the calls of the source. The calls were made as follows: active = growth percent below 10; inactive = the rest.
Outcome field: choose from True = active, False = inactive

>  <Compound>
O=C(/C=C/c1ccccc1)n1c(-c2ccc(Cl)cc2)nc2ccccc21

>  <Category label>
True

$$$$
>  <Compound>
CNC(C)=O

>  <Category label>
False

$$$$
>  <Compound>
O=C(Nc1cc(C(F)(F)F)cc(C(F)(F)F)c1)Nc1ccc(OCc2nnc(-c3ccc(Cl)cc3)o2)c(F)c1

>  <Category label>
False

$$$$
>  <Compound>
COc1ccc(C(=O)/C=C/c2cc(C(=O)c3cc(OC)c(OC)c(OC)c3)ccc2OC)cc1

>  <Category label>
False

$$$$
>  <Compound>
O=C(C[N+](=O)[O-])c1ccc(Cl)cc1

>  <Category label>
False

$$$$

// query Tell me the assay call for Cc1cc(C)c2c(=O)[nH]c(SCC(=O)Nc3cccc(S(=O)(=O)N(C)C)c3)nc2n1 please.
// result False

// query Tell me the assay call for CN(C)CCCNC(=O)C(c1ccccc1)c1ccccc1 please.
// result False

// query Tell me the assay call for C#CCC1(c2ccc(F)c(F)c2)NS(=O)(=O)c2ccccc21 (stereo not drawn) please.
// result False

// query Tell me the assay call for O=S(=O)(NCCCNc1nccc(-c2c(-c3ccccc3)nc3sccn23)n1)c1ccc(F)cc1 please.
// result False

// query Tell me the assay call for COc1cc(NC(=O)CCl)ccc(=O)c1 please.
// result False

// query Tell me the assay call for CCN(Cc1ccc(CN(CC)C(=O)C(Cl)(Cl)Cl)cc1)C(=O)C(Cl)(Cl)Cl please.
// result False

// query Tell me the assay call for Nc1c(C(=O)Nc2cccc(C(F)(F)F)c2)sc2nc3c(cc12)CCCCCC3 please.
// result True
